- System: P-388
- Method Summary: Inhibition of cell growth by counting cells, P-388
- Assay type: cell-based, mouse
- Conditions: Mus musculus, P388, 72 h; three days of incubation; read-out: IC50 (molar) P-388

- Compound: "COc1cc2c(cc1OC(=O)OCc1ccccc1)CCN[C@]21CS[C@@H]2c3c(OC(C)=O)c(C)c4c(c3[C@H](COC1=O)N1C2[C@H]2c3c(cc(C)c(OC)c3O)C[C@@H]([C@@H]1O)N2C)OCO4 (stereo partly shown) [Compound 65]"
  IC50 [pM]: 112
- Compound: "COc1cc2c(cc1O)CCN[C@]21CS[C@@H]2c3c(OC(C)=O)c(C)c4c(c3[C@H](COC1=O)N1C2[C@H]2c3c(cc(C)c(OC)c3O)C[C@@H]([C@@H]1C#N)N2C(=O)OC(C)(C)C)OCO4 (stereo partly shown) [Compound 188]"
  IC50 [pM]: 583
- Compound: "CCCCCCCCCCCCCCCC(=O)Oc1cc2c(cc1OC)[C@@]1(CS[C@@H]3c4c(OC(C)=O)c(C)c5c(c4[C@H](COC1=O)N1C3[C@H]3c4c(cc(C)c(OC)c4OC(=O)CCCCCCCCCCCCCCC)C[C@@H]([C@@H]1C#N)N3C)OCO5)NCC2 (stereo partly shown) [Compound 17]"
  IC50 [pM]: 80200
- Compound: "CCCCCCCC(=O)Oc1c(C)c2c(c3c1[C@H]1SC[C@]4(NCCc5cc(O)c(OC)cc54)C(=O)OC[C@@H]3N3C1[C@H]1c4c(cc(C)c(OC)c4O)C[C@@H]([C@@H]3C#N)N1C)OCO2 (stereo partly shown) [Compound 144]"
  IC50 [pM]: 1170

====

Parameter Toxicity Data Heart, tested on Heart, listed per item.
Reported Endpoint: Toxicity Data Heart

- Molecule: "COc1cc2c(cc1OC(=O)OC(C)(C)C)CCN[C@]21CS[C@@H]2c3c(OC(=O)[C@H](C)NC(=O)OC(C)(C)C)c(C)c4c(c3[C@H](COC1=O)N1C2[C@H]2c3c(cc(C)c(OC)c3O)C[C@@H]([C@@H]1O)N2C)OCO4 (stereo partly shown)"
  Measured On: "Heart"
  Reported Endpoint: "Toxicity Data Heart"
  Reported Measurement: "2.82E-09"
- Molecule: "COc1cc2c(cc1O)CCN[C@]21CS[C@@H]2c3c(OC(=O)CCCCC4SCC5NC(=O)NC54)c(C)c4c(c3[C@H](COC1=O)N1C2[C@H]2c3c(cc(C)c(OC)c3O)C[C@@H]([C@@H]1O)N2C)OCO4 (stereo partly shown)"
  Measured On: "Heart"
  Reported Endpoint: "Toxicity Data Heart"
  Reported Measurement: "3.13E-08"
- Molecule: "COc1cc2c(cc1O)CCN[C@]21CS[C@@H]2c3c(OC(=O)CCCCC4SCC5NC(=O)NC54)c(C)c4c(c3[C@H](COC1=O)N1C2[C@H]2c3c(cc(C)c(OC)c3OC(=O)CCCCC3SCC5NC(=O)NC53)C[C@@H]([C@@H]1O)N2C)OCO4 (stereo partly shown)"
  Measured On: "Heart"
  Reported Endpoint: "Toxicity Data Heart"
  Reported Measurement: "7.52E-07"
- Molecule: "COc1cc2c(cc1OC(=O)OC(C)(C)C)CCN[C@]21CS[C@@H]2c3c(OC(=O)OC(C)(C)C)c(C)c4c(c3[C@H](COC1=O)N1C2[C@H]2c3c(cc(C)c(OC)c3O)C[C@@H]([C@@H]1O)N2C)OCO4 (stereo partly shown)"
  Measured On: "Heart"
  Reported Endpoint: "Toxicity Data Heart"
  Reported Measurement: "1.19E-07"

====

- Test system: Kidney
Below: a set of entries, each annotated with reported Toxicity Data Kidney.
Reported Endpoint: Toxicity Data Kidney

- Compound: "CCOc1cc2c(cc1OC)[C@@]1(CS[C@@H]3c4c(OC(C)=O)c(C)c5c(c4[C@H](COC1=O)N1C3[C@H]3c4c(cc(C)c(OC)c4O)C[C@@H]([C@@H]1O)N3C)OCO5)NCC2 (stereo partly drawn)"
  Reported Measurement: "5.10E-09"
- Compound: "C=CCOC(=O)Oc1cc2c(cc1OC)[C@@]1(CS[C@@H]3c4c(OC(C)=O)c(C)c5c(c4[C@H](COC1=O)N1C3[C@H]3c4c(cc(C)c(OC)c4O)C[C@@H]([C@@H]1O)N3C)OCO5)NCC2 (stereo partly drawn)"
  Reported Measurement: "1.77E-08"
- Compound: "COc1cc2c(cc1O)CCN[C@]21CS[C@@H]2c3c(OC(C)=O)c(C)c4c(c3[C@H](COC1=O)N1C2[C@H]2c3c(cc(C)c(OC)c3OC)C[C@@H]([C@@H]1O)N2C)OCO4 (stereo partly drawn)"
  Reported Measurement: "1.08E-06"
- Compound: "C=CCOc1c(C)c2c(c3c1[C@H]1SC[C@]4(NCCc5cc(O)c(OC)cc54)C(=O)OC[C@@H]3N3C1[C@H]1c4c(cc(C)c(OC)c4O)C[C@@H]([C@@H]3O)N1C)OCO2 (stereo partly drawn)"
  Reported Measurement: "6.72E-03"
- Compound: "CCCC(=O)Oc1c(C)c2c(c3c1[C@H]1SC[C@]4(NCCc5cc(O)c(OC)cc54)C(=O)OC[C@@H]3N3C1[C@H]1c4c(cc(C)c(OC)c4O)C[C@@H]([C@@H]3O)N1C)OCO2 (stereo partly drawn)"
  Reported Measurement: "6.33E-07"
- Compound: "COc1cc2c(cc1OC(C)=O)CCN[C@]21CS[C@@H]2c3c(OC(C)=O)c(C)c4c(c3[C@H](COC1=O)N1C2[C@H]2c3c(cc(C)c(OC)c3O)C[C@@H]([C@@H]1O)N2C)OCO4 (stereo partly drawn)"
  Reported Measurement: "3.35E-09"
- Compound: "COc1cc2c(cc1OC(=O)OC(C)(C)C)CCN[C@]21CS[C@@H]2c3c(OC(=O)[C@H](C)NC(=O)OC(C)(C)C)c(C)c4c(c3[C@H](COC1=O)N1C2[C@H]2c3c(cc(C)c(OC)c3O)C[C@@H]([C@@H]1O)N2C)OCO4 (stereo partly drawn)"
  Reported Measurement: "2.84E-09"
- Compound: "CCCCCCCC(=O)Oc1cc2c(cc1OC)[C@@]1(CS[C@@H]3c4c(OC(C)=O)c(C)c5c(c4[C@H](COC1=O)N1C3[C@H]3c4c(cc(C)c(OC)c4O)C[C@@H]([C@@H]1O)N3C)OCO5)NCC2 (stereo partly drawn)"
  Reported Measurement: "2.87E-08"
- Compound: "COc1cc2c(cc1OC(=O)c1cc3ccccc3oc1=O)CCN[C@]21CS[C@@H]2c3c(OC(C)=O)c(C)c4c(c3[C@H](COC1=O)N1C2[C@H]2c3c(cc(C)c(OC)c3O)C[C@@H]([C@@H]1O)N2C)OCO4 (stereo partly drawn)"
  Reported Measurement: "3.20E-09"
- Compound: "COc1cc2c(cc1OC(=O)OC(C)(C)C)CCN[C@]21CS[C@@H]2c3c(OC(=O)OC(C)(C)C)c(C)c4c(c3[C@H](COC1=O)N1C2[C@H]2c3c(cc(C)c(OC)c3OC(=O)OC(C)(C)C)C[C@@H]([C@@H]1O)N2C)OCO4 (stereo partly drawn)"
  Reported Measurement: "1.24E-08"
- Compound: "COc1cc2c(cc1OC(=O)CCc1ccccc1)CCN[C@]21CS[C@@H]2c3c(OC(C)=O)c(C)c4c(c3[C@H](COC1=O)N1C2[C@H]2c3c(cc(C)c(OC)c3O)C[C@@H]([C@@H]1O)N2C)OCO4 (stereo partly drawn)"
  Reported Measurement: "1.85E-08"
- Compound: "COc1cc2c(cc1O)CCN(C)[C@]21CS[C@@H]2c3c(OC(C)=O)c(C)c4c(c3[C@H](COC1=O)N1C2[C@H]2c3c(cc(C)c(OC)c3O)C[C@@H]([C@@H]1O)N2C)OCO4 (stereo partly drawn)"
  Reported Measurement: "6.32E-08"
- Compound: "COc1cc2c(cc1O)CCN[C@]21CS[C@@H]2c3c(OC(=O)CCCCC4SCC5NC(=O)NC54)c(C)c4c(c3[C@H](COC1=O)N1C2[C@H]2c3c(cc(C)c(OC)c3OC(=O)CCCCC3SCC5NC(=O)NC53)C[C@@H]([C@@H]1O)N2C)OCO4 (stereo partly drawn)"
  Reported Measurement: "7.93E-07"
- Compound: "COc1cc2c(cc1OC(=O)C(F)(F)F)CCN[C@]21CS[C@@H]2c3c(OC(C)=O)c(C)c4c(c3[C@H](COC1=O)N1C2[C@H]2c3c(cc(C)c(OC)c3O)C[C@@H]([C@@H]1O)N2C)OCO4 (stereo partly drawn)"
  Reported Measurement: "2.67E-09"
- Compound: "COc1cc2c(cc1O)CCN[C@]21CS[C@@H]2c3c(OC(=O)/C=C/c4ccccc4)c(C)c4c(c3[C@H](COC1=O)N1C2[C@H]2c3c(cc(C)c(OC)c3O)C[C@@H]([C@@H]1O)N2C)OCO4 (stereo partly drawn)"
  Reported Measurement: "2.60E-09"
- Compound: "COc1cc2c(cc1O)CCN[C@]21CS[C@@H]2c3c(OC(=O)CCCCC4SCC5NC(=O)NC54)c(C)c4c(c3[C@H](COC1=O)N1C2[C@H]2c3c(cc(C)c(OC)c3O)C[C@@H]([C@@H]1O)N2C)OCO4 (stereo partly drawn)"
  Reported Measurement: "2.70E-08"
- Compound: "C=CCOC(=O)Oc1c(C)c2c(c3c1[C@H]1SC[C@]4(NCCc5cc(O)c(OC)cc54)C(=O)OC[C@@H]3N3C1[C@H]1c4c(cc(C)c(OC)c4O)C[C@@H]([C@@H]3O)N1C)OCO2 (stereo partly drawn)"
  Reported Measurement: "1.89E-08"
- Compound: "CCCCCCCCCCCCCCCC(=O)Oc1c(C)c2c(c3c1[C@H]1SC[C@]4(NCCc5cc(O)c(OC)cc54)C(=O)OC[C@@H]3N3C1[C@H]1c4c(cc(C)c(OC)c4O)C[C@@H]([C@@H]3O)N1C)OCO2 (stereo partly drawn)"
  Reported Measurement: "3.01E-07"
